Every entry's value here was drawn from the array DNA melting data of Ke et al. (doi:10.1101/2024.01.08.574731).

Assay: folding enthalpy; higher = less favourable; fluorescence melt of hairpins on a sequencing array, two-state fit
Details: sodium 0.088 M
Kindly return label 1 if reported folding enthalpy is no lower than -20 kcal/mol; return label 0 if it is lower.

Worked cases, answers included:
In [3]: df
Out[3]:
                  macromolecule_sequence      cat
0  GTATCAGGAAACTGGTAC (((.(((....))).)))  label 0
1      GATCTAGCCGTAGATC ((((((....))))))  label 0
2  GTGTCCGAAAGGAGACAC ((((((....)))..)))  label 0
3  GAGCAAGGAAACTTGTTC ((.((((....)))).))  label 0
4  GCTTCAGCGAAAGCTAGC (((..(((....))))))  label 1
5  GCCAACGGAAACACTGGC ((((..(....)..))))  label 1

Inquiry: Dear colleague, could you confirm whether GCACGCGGAAACACGCGC ((.((.(....).)).)) has folding enthalpy at or above -20 kcal/mol?
Reply text: label 1

Inquiry: Dear colleague, could you confirm whether GGGGTACGAAAGTAACCC (((.(((....))).))) has folding enthalpy at or above -20 kcal/mol?
Reply text: label 0

###

Assay: folding enthalpy; higher = less favourable; fluorescence melt of hairpins on a sequencing array, two-state fit
Details: sodium 0.088 M
recorded.endpoint: folding enthalpy

>>> print(df.to_string())
                  macromolecule_sequence  recorded_value
0  GGCGCCGAAAGGCATGCC ((((((....)))..)))    -80.2 kJ/mol

Inquiry: What does the data say about its folding enthalpy? Entry: GTAGTGGGAAACCATTAC (((.(((....))).)))
Reply text: -134 kJ/mol

Inquiry: What does the data say about its folding enthalpy? Entry: GATCGAAATTTCGATC ((((((....))))))
Reply text: -172 kJ/mol

Inquiry: What does the data say about its folding enthalpy? Entry: GTTATTGGAAACGATAAC (((((.(....).)))))
Reply text: -89.8 kJ/mol

Inquiry: What does the data say about its folding enthalpy? Entry: GTGAGACGAAAGTCCCAC (((.(((....))).)))
Reply text: -114 kJ/mol

Inquiry: What does the data say about its folding enthalpy? Entry: GTCGAACGAAAGTTGGAC (((.(((....))).)))
Reply text: -194 kJ/mol

Inquiry: What does the data say about its folding enthalpy? Entry: GAACCCGAAAGGGCTTTC ((((((....)))..)))
Reply text: -43.7 kJ/mol

Inquiry: What does the data say about its folding enthalpy? Entry: GGTAACGAAAGTTACC ((((((....))))))
Reply text: -145 kJ/mol

###

Assay: melting temperature; fluorescence melt of hairpins on a sequencing array, two-state fit, raised by 9.35 °C to match UV melts
Settings: sodium 0.088 M
recorded.endpoint: Tm
Just so you know, I need the unit written after the number.

// below: answered sequences
>>> print(df.to_string())
                  macromolecule_sequence  recorded_value
0      GATCTGCCTTCAGATC ((((((....))))))           49 °C
1  GACTCCGAAAGGAGAGTC ((((((....)))..)))           43 °C
2  GGCCGCCGAAAGGCTGCC (((.(((....))).)))         65.5 °C

Inquiry: What does the data say about its Tm? Entry: GCGCCTCGAAAGAGTCGC (((.(((....))).)))
Reply text: 58.7 °C

Inquiry: What does the data say about its Tm? Entry: GCCCATCGAAAGATTGGC (((.(((....))).)))
Reply text: 47.8 °C

Inquiry: What does the data say about its Tm? Entry: GATCGGCGTACCGATC ((((((....))))))
Reply text: 59.5 °C

Inquiry: What does the data say about its Tm? Entry: GAGGCCGAAAGGCATCTC ((((((....)))..)))
Reply text: 68.4 °C

Inquiry: What does the data say about its Tm? Entry: GTATCGGGAAACCGGTAC (((.(((....))).)))
Reply text: 48.9 °C

Inquiry: What does the data say about its Tm? Entry: GCTCACGAAAGTGAAGC ((((((....))).)))
Reply text: 56 °C

###

Assay: melting temperature; fluorescence melt of hairpins on a sequencing array, two-state fit, raised by 9.35 °C to match UV melts
Conditions: sodium 0.088 M
Rule: Tm below 40 °C gives YES, anything at or above gives NO.

            macromolecule_sequence  cat
0  GATCATGAAATGATC ((((((...))))))   NO

Inquiry: Lab note: Tm threshold 40 °C. Does this sequence come in strictly under it? GGCTGCGAAAGCAAGGCC ((((((....)))..)))
Reply text: NO

Inquiry: Lab note: Tm threshold 40 °C. Does this sequence come in strictly under it? GCTTGAGGAAACTCAGGC ((.((((....)))).))
Reply text: NO

###

Test: folding enthalpy; higher = less favourable; fluorescence melt of hairpins on a sequencing array, two-state fit
Settings: sodium 0.088 M
recorded.endpoint: folding enthalpy (kcal/mol)
Please reply with the bare figure in kcal/mol and do not write the unit itself.

// below: answered sequences
                  macromolecule_sequence  recorded_value
0  GTGCTTCCGAAAGGACAC (((..(((....))))))           -22.1
1  GTTCACGAAAGTGTAAAC ((((((....)))..)))           -12.3
2  GGGAGACCGAAAGGTCCC (((..(((....))))))           -12.8

Inquiry: What does the data say about its folding enthalpy? Entry: GAGTTCGGAAACGGACTC ((((.((....)).))))
Reply text: -43.1

Inquiry: What does the data say about its folding enthalpy? Entry: GCACCCGAAAGGGTATGC ((((((....)))..)))
Reply text: -13.9

Inquiry: What does the data say about its folding enthalpy? Entry: CGAACGGAAACGTGCTCG ((((((....)))..)))
Reply text: -15.1

Inquiry: What does the data say about its folding enthalpy? Entry: GTCGTTTCGAAAGAAGAC (((..(((....))))))
Reply text: -14

###

Experiment: melting temperature; fluorescence melt of hairpins on a sequencing array, two-state fit, raised by 9.35 °C to match UV melts
Settings: sodium 0.088 M
Rule: Tm below 50 °C gives 1, anything at or above gives -1.

Worked cases, answers included:
                  macromolecule_sequence  cat
0  GCCACGCGAAAGCATCGC ((.(.((....)).).))    1
1  GCGAGCGCGAAAGCGCGC (((..(((....))))))   -1
2  GCGACCGAAAGGTGACGC ((((((....)))..)))   -1
3  GCGTTCGCGAAAGCGCGC (((..(((....))))))   -1
4  GATACCCGAAAGGGGATC (((.(((....))).)))   -1
5  GAGCGACGAAAGTCCCTC (((.(((....))).)))    1

Inquiry: Lab note: Tm threshold 50 °C. Does this sequence come in strictly under it? GTGCTCGAAAGAGTCCAC ((((((....)))..)))
Reply text: 1

Inquiry: Lab note: Tm threshold 50 °C. Does this sequence come in strictly under it? GCGGGGCGAAAGCCGAGC ((..(((....)))..))
Reply text: -1

Inquiry: Lab note: Tm threshold 50 °C. Does this sequence come in strictly under it? GCAGAGCGAAAGCCCAGC ((.(.((....)).).))
Reply text: 1

Inquiry: Lab note: Tm threshold 50 °C. Does this sequence come in strictly under it? GCGCGTGGAAACACGCAC (.(((((....))))).)
Reply text: -1

Inquiry: Lab note: Tm threshold 50 °C. Does this sequence come in strictly under it? GCCGCGCGAAAGCGTCGC ((..(((....)))..))
Reply text: -1

Inquiry: Lab note: Tm threshold 50 °C. Does this sequence come in strictly under it? GGCTATCGAAAGATGGCC (((.(((....))).)))
Reply text: -1

Inquiry: Lab note: Tm threshold 50 °C. Does this sequence come in strictly under it? GACATGGGAAACCACGTC (((.(((....))).)))
Reply text: 1

###

Assay: melting temperature; fluorescence melt of hairpins on a sequencing array, two-state fit, raised by 9.35 °C to match UV melts
Details: sodium 0.088 M
recorded.endpoint: Tm (°C)
Please reply with the bare figure in °C and do not write the unit itself.

// below: answered sequences
>>> print(df.to_string())
                  macromolecule_sequence  recorded_value
0  GGCTTGGGAAACCAAACC ((.((((....)))).))              41
1      GATCGCCCCTGCGATC ((((((....))))))            67.2
2  GTTGGAGGAAACTCTAAC (((.(((....))).)))            39.9
3      GATCGTATAGACGATC ((((((....))))))              53
4  GGCACAGGAAACTATGCC ((((.((....)).))))            41.7
5  GCTACAGGAAACTGTAAC (.(((((....))))).)            30.3
6  GCGGCCGAAAGGCTTCGC ((((((....)))..)))            53.5
7  GTCGCCGGAAACAGCGAC (((((.(....).)))))            54.9
8      GTTATGGAAACATAAC ((((((....))))))            47.5
9      GATCTGTCTACAGATC ((((((....))))))            54.9

Inquiry: What does the data say about its Tm? Entry: GCATGCCCGAAAGGGTGC (((..(((....))))))
Reply text: 44.4
